Tested on: OVCAR-4 ovarian
Experiment: NCI-60 one-dose screen, 48 h
Conditions: 10 µM unless noted
Experimental: Growth inhibition of the OVCAR-4 human tumor cell line is measured as a screen for anti-cancer activity. Cells are grown in 96 well plates and exposed to the test compound for 48 hours. Compounds are tested at a single concentration, which is 10^-5 M for most compounds. The reported endpoint is percent growth (GI% or GIPRCNT), where numbers from 0 - 100% represent growth inhibition, and numbers from -100% - 0 represent cell death. For example, a value of 40 represents 60% growth inhibition. […]
This is part of a sample that, as a whole, favours compounds with a hit. Of some 83,000 tested, about 20% had one in any assay. The source made the active and inactive calls. How the source made its calls: active means growth percent below 10; inactive means the rest.
Outcome codes: 1 (yes) = active, 0 (no) = inactive

INSERT INTO measurements (compound, group) VALUES
  ('CCCCCCCCOC(=O)CC[C@@H](C)[C@H]1CC[C@H]2[C@@H]3[C@H](OC(=O)CCN)C[C@@H]4C[C@H](OC(=O)CCN)CC[C@]4(C)[C@H]3C[C@H](OC(=O)CCN)[C@]12C', '0 (no)'),
  ('CCN(CC)CCCC(C)N/C(=C1\C(=O)NC(=O)\C1=C(/NC(C)CCCN(CC)CC)c1cccc(OC)c1)c1cccc(OC)c1 (centres undefined)', '1 (yes)'),
  ('CNc1nc(C)c(-c2nc(Nc3cccc(S(N)(=O)=O)c3)ncc2F)s1', '0 (no)'),
  ('C=C1CC2(OC1=O)C(=O)Nc1ccccc12 (centres undefined)', '0 (no)'),
  ('CC[C@H](CO)Nc1nc(NCc2ccccc2)n2ncc(C(C)C)c2n1', '0 (no)'),
  ('CSc1ccc(N=C=C(c2ccccc2)c2ccccc2)cc1', '0 (no)'),
  ('CCc1ccccc1NC(=O)c1sc2nc3c(cc2c1N)C(=O)CCC3', '0 (no)'),
  ('CS(=O)(=O)c1ccc(-c2cnc3ccc(-c4cccc(S(C)(=O)=O)c4)nn23)cc1', '0 (no)'),
  ('CN(C)C(=O)c1cc2cnc(Nc3ccc(-c4csc5c(=O)cc(N6CCNCC6)oc45)cc3)nc2n1C1CCCC1', '0 (no)');

Sourced from PubChem BioAssay (NCI)
